# study target: DSTYK (human) (UniProt Q6XUX3)
# Sequence (Q6XUX3 whole entry, looked up): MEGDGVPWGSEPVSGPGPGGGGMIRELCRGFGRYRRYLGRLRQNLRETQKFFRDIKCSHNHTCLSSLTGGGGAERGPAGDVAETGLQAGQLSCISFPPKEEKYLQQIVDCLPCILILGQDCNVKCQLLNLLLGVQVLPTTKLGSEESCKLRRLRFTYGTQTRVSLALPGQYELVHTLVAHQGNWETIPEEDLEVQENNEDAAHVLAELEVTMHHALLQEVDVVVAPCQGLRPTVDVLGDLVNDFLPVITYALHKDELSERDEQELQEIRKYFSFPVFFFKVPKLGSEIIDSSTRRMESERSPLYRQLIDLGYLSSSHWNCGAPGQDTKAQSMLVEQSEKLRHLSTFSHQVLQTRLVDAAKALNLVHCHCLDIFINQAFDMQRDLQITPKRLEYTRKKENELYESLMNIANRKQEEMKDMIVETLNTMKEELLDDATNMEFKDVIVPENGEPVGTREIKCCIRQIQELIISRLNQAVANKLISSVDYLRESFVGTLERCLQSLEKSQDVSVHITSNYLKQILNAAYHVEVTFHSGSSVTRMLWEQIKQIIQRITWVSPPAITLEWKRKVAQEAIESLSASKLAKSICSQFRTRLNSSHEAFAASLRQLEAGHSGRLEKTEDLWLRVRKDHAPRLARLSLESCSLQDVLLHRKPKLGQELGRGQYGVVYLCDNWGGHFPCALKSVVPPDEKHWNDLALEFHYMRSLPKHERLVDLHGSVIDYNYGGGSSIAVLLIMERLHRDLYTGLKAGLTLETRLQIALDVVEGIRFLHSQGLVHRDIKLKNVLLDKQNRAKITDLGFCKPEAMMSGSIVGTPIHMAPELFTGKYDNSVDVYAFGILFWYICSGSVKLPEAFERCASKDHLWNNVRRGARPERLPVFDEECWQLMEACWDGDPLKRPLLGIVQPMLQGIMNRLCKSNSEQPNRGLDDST
# test: KINOMEscan competition binding
# assay setup: compound 10.0 µM
Below, each entry is listed with its recorded kinase still bound, per cent of control.
recorded endpoint: kinase still bound, per cent of control (%)

structure_string=CCN1CCN(C(=O)Cc2ccc(Nc3ncc(F)c(Nc4ccc(C(=O)Nc5ccccc5Cl)cc4)n3)cc2)CC1 u=% measured_number=71
structure_string=CN(C)C/C=C/C(=O)Nc1ccc(C(=O)Nc2cccc(Nc3nccc(-c4cccnc4)n3)c2)cc1 u=% measured_number=100
structure_string=O=C1NC(=O)/C(=C/c2ccc3nccc(-c4ccncc4)c3c2)S1 u=% measured_number=61

====

# study target: TAOK3 (human)
# test: KINOMEscan competition binding
# assay setup: compound 10.0 µM
As shown below, each of these molecules has a reported kinase still bound, per cent of control value.
recorded endpoint: kinase still bound, per cent of control (%)

structure_string=O=c1cc(N2CCOCC2)oc2c(-c3cccc4c3sc3ccccc34)cccc12 recorded_endpoint="kinase still bound, per cent of control" measured_number=97
structure_string=CN(C)C/C=C/C(=O)Nc1ccc(C(=O)Nc2cccc(Nc3nccc(-c4cccnc4)n3)c2)cc1 recorded_endpoint="kinase still bound, per cent of control" measured_number=37
structure_string=N#CCNC(=O)c1ccc(-c2ccnc(Nc3ccc(N4CCOCC4)cc3)n2)cc1 recorded_endpoint="kinase still bound, per cent of control" measured_number=100

Recorded values, source the kinase profiling compilation of Christmann-Franck et al. (2016).
